Please go through the items and note down their AC50.
Tested on: HMLE_sh_eGFP viability, CellTiter-Glo luminescence, 72 h
ASSAY OVERVIEW: cytotoxicity in HMLE control line with eGFP shRNA, dose response, counter-screen for HMLE_sh_ECad selective toxicity project, cell-based, HMLE_sh_eGFP, luminescence (AID 463074);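 further: counterscreen control line to flag general toxicity for the HMLE_sh_ECad screen; potency for loss of viability as luminescence drops below DMSO wells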

Fill in: AC50 of CCCN1C/C(=C/c2ccc3c(c2)OCO3)C(=O)/C(=C/c2ccc3c(c2)OCO3)C1 is ___
1.12 µM

Fill in: AC50 of CN(C)CCn1c2ccccc2c2nc3ccc([N+](=O)[O-])cc3cc21 is ___
15.6 µM

Fill in: AC50 of Oc1ccc(/C=C/c2nc(-c3ccccc3O)n(-c3ccccc3)n2)cc1 is ___
6.7 µM

Fill in: AC50 of O=C(COc1ccccc1-c1ccccc1)N/N=C/c1cccc2ccccc12 is ___
0.608 µM

Fill in: AC50 of CN(C)c1ccc(-c2cc([C@H]3[C@@H]4C=CCC[C@@]4(C)C(=O)N3Cc3ccccc3)ccc2F)cc1 is ___
6.46 µM

Fill in: AC50 of COc1ccc(C(=O)Nc2cccc(/C=C/c3nc4ccccc4c(=O)[nH]3)c2)cc1 is ___
3.58 µM

Fill in: AC50 of OC(CNCC(c1ccc(Cl)cc1Cl)c1c[nH]c2ccccc12)c1ccccc1 (stereo not given) is ___
2.88 µM

Fill in: AC50 of N=C(N)SCc1nc2ccccc2c(=O)n1-c1ccccc1Cl is ___
12.5 µM

Fill in: AC50 of Cc1ccccc1CNc1ccc(C(CC(N)=O)NC(=O)c2ccc(Br)cc2)cc1[N+](=O)[O-] (stereo not given) is ___
3.96 µM

Fill in: AC50 of Cc1ccc(C(=O)Nc2ncc(Cc3ccccc3)s2)o1 is ___
1 µM

###

System: HMLE_sh_eGFP viability, CellTiter-Glo luminescence, 72 h
ASSAY OVERVIEW: cytotoxicity in HMLE control line with eGFP shRNA, dose response, counter-screen for HMLE_sh_ECad selective toxicity project, cell-based, HMLE_sh_eGFP, luminescence (AID 463074);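 further: counterscreen control line to flag general toxicity for the HMLE_sh_ECad screen; potency for loss of viability as luminescence drops below DMSO wells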
Please go through the items and note down their AC50.

Fill in: AC50 of O=C(N/N=C/c1cc(Cl)cc([N+](=O)[O-])c1O)NC12CC3CC(CC(C3)C1)C2 is ___
4.59 µM

Fill in: AC50 of O/N=C/c1cc(Cl)ccc1OCc1ccccc1Cl is ___
6.08 µM

Fill in: AC50 of O=C(COC(=O)/C=C/C(=O)OCC(=O)Nc1ccccc1F)Nc1ccccc1F is ___
9.61 µM

Fill in: AC50 of CCN1CCN(CCCNC(=O)c2ccc(/C=C3/Sc4ccccc4N(Cc4ccccc4F)C3=O)cc2)CC1 is ___
3.14 µM

Fill in: AC50 of CCn1c(C)nc2cc(C(=O)N/N=C/c3cccc(OC)c3O)ccc21 is ___
6.95 µM

###

Test system: HMLE_sh_eGFP viability, CellTiter-Glo luminescence, 72 h
ASSAY OVERVIEW: cytotoxicity in HMLE control line with eGFP shRNA, dose response, counter-screen for HMLE_sh_ECad selective toxicity project, cell-based, HMLE_sh_eGFP, luminescence (AID 463074);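 further: counterscreen control line to flag general toxicity for the HMLE_sh_ECad screen; potency for loss of viability as luminescence drops below DMSO wells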
Activity calls are given as the source filed them.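 How the source made its calls: active means AC50 no more than tenfold above the top dose tested, or full inhibition at every dose with a flat fit (cut at about 19 µM in these data); inconclusive means flat curve fit with inhibition between 30% and 70%, or poor fit; inactive means AC50 more than tenfold above the top dose tested.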
Pick one: YES for active, NO for inactive

Hi, do you know how CC(C)(C)OC(=O)NCc1ccc(NC(=O)c2nc[nH]c2C(=O)NCCCNC(=O)c2[nH]cnc2C(=O)Nc2ccc(CNC(=O)OC(C)(C)C)cc2)cc1 came out in this test?
YES

Hi, do you know how COc1ccc(CC2S/C(=N/N=C/c3ccccc3O)NC2=O)cc1 (stereo not given) came out in this test?
YES

Hi, do you know how Cc1noc(C)c1CSc1nc2ccccc2nc1NS(=O)(=O)c1ccc(Cl)cc1 came out in this test?
YES

Hi, do you know how COc1cc(OC)cc(C(=O)Nc2ccc(Nc3ccccc3)cc2)c1 came out in this test?
YES

Hi, do you know how O=C(Nc1nc2ccccc2s1)C1CCN(S(=O)(=O)c2cc([N+](=O)[O-])ccc2Cl)CC1 came out in this test?
YES

Hi, do you know how CCOC(=O)CSC1=C(C#N)C(c2sccc2C)CC(=O)N1 (stereo not given) came out in this test?
NO

Hi, do you know how Cc1ccc(NC(=S)NC(NC(=O)Cc2cccc3ccccc23)C(Cl)(Cl)Cl)cc1 (stereo not given) came out in this test?
YES

Hi, do you know how CCCCCc1nc2c(c(=O)c3ccccc3n2C)c(=O)n1C1CCCCCC1 came out in this test?
YES

Hi, do you know how COc1ccccc1/C=C1\SC(=O)N(CCC(=O)NCCCn2ccnc2)C1=O came out in this test?
YES

Hi, do you know how COc1ccc(/C=C/C(=O)c2ccncc2)c2ccccc12 came out in this test?
YES
